# assay.target: type 2 human 5α-reductase (HRED2) (Homo sapiens)
# Sequence (P31213 1-254): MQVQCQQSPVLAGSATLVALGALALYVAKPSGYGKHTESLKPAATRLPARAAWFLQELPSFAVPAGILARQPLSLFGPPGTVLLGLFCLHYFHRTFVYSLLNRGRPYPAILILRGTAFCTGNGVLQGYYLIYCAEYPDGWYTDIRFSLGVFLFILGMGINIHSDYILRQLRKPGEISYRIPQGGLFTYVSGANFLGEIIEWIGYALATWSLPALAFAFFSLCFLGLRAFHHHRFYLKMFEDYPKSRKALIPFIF
# protocol.text: Cell free assay of 5α-reductase, microsomes of rat 1A cells expressing type 2 isoenzyme (HRED2)
# Type: biochemical
# Parameters: expressed in transfected cells; host or cells: rat 1A cells infected with pMV7 retrovirus; microsomes
# recorded.conditions: cell free assay; Table 6 fatty acids; read-out: HRED2 IC50
pIC50: −log10 of the molar value.

molecule | measurement.qualifier | pIC50
CC(/C=C/C=C(\C)C(=O)O)=C\C=C\C=C(C)\C=C\C=C(/C)C(=O)O [Crocetin] | < | 4.00
CCCCCCCCCCCCCCCCCC(=O)O [Stearic Acid, Stearic Acid C18:0] | < | 4.00
CCCCC/C=C\C/C=C\CCCCCCCC(=O)O [Linoleic Acid, Linoleic Acid C18:2 CIS 9,12] | = | 4.72
CCCCC/C=C\C/C=C\C/C=C\CCCCC(=O)O [Gamma-Linolenic Acid, Gamma-Linolenic Acid C18:3 CIS 6.9,12] | = | 4.96

---

The following molecules are listed with their measured inhibition at 100 µM values.
# assay.target: type 2 human 5α-reductase (HRED2) (Homo sapiens)
# Sequence (P31213 1-254): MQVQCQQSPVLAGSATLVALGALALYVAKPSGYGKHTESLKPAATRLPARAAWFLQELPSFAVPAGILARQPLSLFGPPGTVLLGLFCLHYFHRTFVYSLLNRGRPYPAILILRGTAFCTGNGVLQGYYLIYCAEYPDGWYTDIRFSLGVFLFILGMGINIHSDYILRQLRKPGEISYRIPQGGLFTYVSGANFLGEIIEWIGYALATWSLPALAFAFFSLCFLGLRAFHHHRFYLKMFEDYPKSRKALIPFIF
# protocol.text: Cell free assay of 5α-reductase, microsomes of rat 1A cells expressing type 2 isoenzyme (HRED2);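 note: labeled testosterone and its product dihydrotestosterone measured in microsomal reaction extracts via thin layer chromatography plus radioanalytic scanning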
# Type: biochemical
# Parameters: expressed in transfected cells; host or cells: rat 1A cells infected with pMV7 retrovirus; microsomes
# recorded.conditions: read-out: HRED2 % Inhibition @ 100 uM

molecule | inhibition at 100 µM (%)
Oc1ccc2c(O)c3ccccc3cc2c1O [Anthrarobin] | 97
O=C(O[C@@H]1Cc2c(O)cc(O)cc2O[C@@H]1c1ccc(O)c(O)c1)c1cc(O)c(O)c(O)c1 [Epicatechin Gallate] | 83
Cc1cc2c(C(C)C)c(O)c(O)c(C=O)c2c(O)c1-c1c(C)cc2c(C(C)C)c(O)c(O)c(C=O)c2c1O [Gossypol] | 99
COc1cc(/C=C/C(=O)CC(=O)/C=C/c2ccc(O)c(OC)c2)ccc1O [Curcumin] | 87
COc1cc(CCC(=O)CC(=O)CCc2ccc(O)c(OC)c2)ccc1O [Tetrahydrocurcumin] | 73
Oc1ccccc1O [Catechol] | 0
C=CCc1ccc(O)c(OC)c1 [Eugenol] | 50

---

# assay.target: type 1 human 5α-reductase (HRED1) (Homo sapiens, UniProt P18405)
# Sequence (P18405 whole entry): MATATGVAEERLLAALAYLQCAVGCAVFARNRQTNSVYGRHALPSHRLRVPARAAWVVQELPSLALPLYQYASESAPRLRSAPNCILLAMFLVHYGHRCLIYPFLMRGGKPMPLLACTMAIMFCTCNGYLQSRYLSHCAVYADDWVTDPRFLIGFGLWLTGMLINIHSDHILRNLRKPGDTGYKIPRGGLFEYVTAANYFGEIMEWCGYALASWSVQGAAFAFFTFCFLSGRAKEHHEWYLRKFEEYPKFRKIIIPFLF
# protocol.text: Cell free assay of 5α-reductase, microsomes of rat 1A cells expressing type 1 isoenzyme (HRED1);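 note: microsomes from rat 1A cells expressing human type 1 5α-reductase, conversion of radiolabeled testosterone to dihydrotestosterone quantified by thin layer chromatography with radioanalytic scanning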
# Assay type: biochemical
# Parameters: expressed in transfected cells; host or cells: rat 1A cells infected with pMV7 retrovirus; microsomes

compound | IC50
COc1cc(CNC(=O)CCCC/C=C/C(C)C)ccc1O | > 100 µM
Cc1cc2c(C(C)C)c(O)c(O)c(C=O)c2c(O)c1-c1c(C)cc2c(C(C)C)c(O)c(O)c(C=O)c2c1O | 7 µM
CCCCCCCC/C=C\CCCCCCCC(=O)O [Oleic Acid, Oleic Acid C18:1 CIS 9] | 10 µM
CC1=CC(=O)c2ccccc2C1=O | 6 µM
O=C1c2ccccc2C(=O)c2ccccc21 | > 100 µM
Oc1ccc2c(O)c3ccccc3cc2c1O | 4 µM
